Overview of recorded IC50 (average), PAD4 citrullination of peptide …, RapidFire MS for various binders
- test target: recombinant human PAD4 (human, UniProt Q9UM07 1-663)
- Sequence (Q9UM07 whole entry): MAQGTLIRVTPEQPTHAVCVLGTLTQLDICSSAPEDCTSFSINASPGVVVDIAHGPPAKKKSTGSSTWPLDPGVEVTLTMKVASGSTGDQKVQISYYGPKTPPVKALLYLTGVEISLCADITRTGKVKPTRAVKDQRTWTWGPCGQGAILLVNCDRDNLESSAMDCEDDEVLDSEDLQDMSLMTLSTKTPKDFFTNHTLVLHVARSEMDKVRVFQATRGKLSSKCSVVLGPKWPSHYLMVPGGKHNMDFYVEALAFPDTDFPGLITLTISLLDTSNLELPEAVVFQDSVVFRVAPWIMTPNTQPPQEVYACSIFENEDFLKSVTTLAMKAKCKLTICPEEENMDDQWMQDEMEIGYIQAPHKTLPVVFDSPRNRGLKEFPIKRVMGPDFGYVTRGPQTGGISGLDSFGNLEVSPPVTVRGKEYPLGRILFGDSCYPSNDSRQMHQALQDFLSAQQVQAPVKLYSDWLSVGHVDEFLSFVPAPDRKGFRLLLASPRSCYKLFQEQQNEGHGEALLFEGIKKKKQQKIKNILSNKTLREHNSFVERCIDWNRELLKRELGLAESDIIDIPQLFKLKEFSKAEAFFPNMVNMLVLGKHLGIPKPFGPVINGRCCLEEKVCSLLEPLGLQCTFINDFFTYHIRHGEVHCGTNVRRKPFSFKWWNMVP
- experimental details: cell-based or functional assay
quantity measured: IC50 (average), PAD4 citrullination of peptide …, RapidFire MS (nM)

>  <binder>
hz13-1 (antibody, V domains shown, light constant region not tied to this antibody) VH: EVQLVQSGAEVKKPGASVKVSCTSSDFNIKDHFIHWVRQAPGKGLEWMGRIDPEDDETKYAPKFQDRVTMTADTSTDTAYMELSSLRSEDTAVYYCAGYGNYEGAMDYWGQGTLVTVSS VL: DIQMTQSPSSLSASVGDRVTITCRASENVNNYGIGFMNWYQQKPGKAPKLLIYAASRRGSGVPSRFSGSGSGTDFTLTISSLQPEDFATYYCQQSKEVPYTFGQGTKVEIK

>  <numeric result>
125

$$$$
>  <binder>
hz13-8 (antibody, V domains shown, light constant region not tied to this antibody) VH: EVLLVQSGAEVKKPGASVKLSCTSSDFNIKDHFIHWVRQAPGKGLEWIGRIDPEDDETKYAPKFQDRVTITADTSTDTAYLELSSLRSEDTAVFYCAGYGNYEGAMDYWGQGTLVTVSS VL: DIQMTQSPSSLSASVGDRVTITCRASENVNNYGIGFMNWFQQKPGKAPKLLIYAASRRGSGVPSRFSGSGSGTDFTLTISSLQPEDFATYFCQQSKEVPYTFGQGTKVEIK

>  <numeric result>
62.8

$$$$
>  <binder>
hz20-3 (antibody, V domains shown, light constant region not tied to this antibody) VH: EVQLVQSGAEVKKPGASVKVSCKASGYTFTNYGISWVRQAPGQGLEWMGEIYPRSGNTYHNEKFKDRVTMTADKSTSTAYMELRSLRSDDTAVYFCARSMITTRYWYFDVWGQGTLVTVSS VL: DIQMTQSPSSLSASVGDRVTITCRASESVDTYGNSFMHWYQQKPGKAPKLLIYLASNLESGVPSRFSGSGSGTDFTLTISSLQPEDFATYYCQQNNEDPLTFGQGTKVEIK

>  <numeric result>
58

$$$$
